tested on: PC-3 prostate; assay: NCI tumour cell line growth inhibition, 48 h; in the data active means GI50 below about 0.43 µM; inactive means the rest
API: response.call in Y for active, N for inactive

COMPOUND	ASSIGNED_LABEL
O=c1oc2ccc(Br)cc2c(=O)n1-c1ccc(F)cc1F	N

Prompt: Lab log entry: `O=C(Nc1ccc(-n2cc(-c3ccncc3)c(-c3ccc(O)c(Cl)c3)n2)cc1)Nc1cccc(Cl)c1Cl` — outcome as called in the assay?
Completion: N

Prompt: # outcome recorded in this test, key = `CCCCCCCCCCN1CCC(N2CCCCC2)CC1`
Completion: N

Prompt: Hi, sorry to bother you, what did the test record for `O=C(Nc1ccc(Cl)c(Cl)c1)Nc1ccccc1O` ?
Completion: N

Prompt: Test call, this compound: `COc1ccc2c3c(Nc4ccc(/C(C)=N/O)cc4)[nH]c4ccccc4c-3c(N=O)c2c1`
Completion: N

Prompt: Please state the recorded outcome for this compound: `COc1ccc2c(Oc3ccc(NC(=O)c4c(C)n(CC(C)(C)O)n(-c5ccccc5)c4=O)nc3)ccnc2c1`
Completion: N

Prompt: What did the test return for `CN1CCN(c2ccc(Nc3ncc4cc(C#N)c(=O)n(C5CCCC5)c4n3)cc2)CC1` ?
Completion: N

Prompt: Tell me the recorded outcome of this test for Nc1nc(N)c2cc(CNc3ccc(C(=O)NC(CC(=O)O)C(=O)O)c(Cl)c3)ccc2n1 (stereo not given) .
Completion: Y

Prompt: Per the records of this test, what outcome belongs to Nc1ccccc1SC1CC(=O)N(c2ccc(Cl)c(Cl)c2)C1=O (stereo not given) ?
Completion: N

Prompt: Could you check what this test reported for `S=C1SC2=Nc3ccccc3CN2C2=NCCN12` ?
Completion: N

* * *

tested on: SNB-19 CNS; test: NCI tumour cell line growth inhibition, 48 h; in the data active = GI50 below about 0.43 µM; inactive = the rest
Mark one answer only. Choices: T (active), F (inactive)

Answered cases to consult:
MOLECULE	ASSIGNED_LABEL
N.N.NCCCCCCCCCN.O=C([O-])CC(=O)[O-].O=C([O-])CC(=O)[O-].[Pt+4].[Pt+4]	F
O=C(NO)c1ccc(CN(c2cnccn2)c2cnccn2)cc1	F
COc1ccc2c(Oc3ccc(NC(=O)c4c(C)n(CC(C)(C)O)n(-c5ccccc5)c4=O)nc3)ccnc2c1	F
Clc1ccc(N=CNc2ccc(-c3nc4ccccc4o3)cc2)cc1	F
C[C@H]1CCC/C=C/[C@@H]2C[C@H](O)C[C@H]2[C@H](O)[C@@H](SCC(O)CO)CC(=O)O1 (some centres undefined)	F
CC[C@@]1(O)C(=O)OCc2c1cc1n(c2=O)Cc2c-1nc1cc(F)c(C)c3c1c2[C@@H](N)CC3	T

Prompt: Please let me know the test result on file for C=CCN1CC2CON(C(=O)C(OC)(c3ccccc3)C(F)(F)F)C2C1C(C)C (centres undefined) .
Completion: F

Prompt: Test call, this molecule: Nc1ccccc1SC1CC(=O)N(c2ccc(Cl)c(Cl)c2)C1=O (centres undefined)
Completion: F

Prompt: What did the test return for `Cn1cc(-c2ccc(-c3cncc(Cl)c3N3CCC4(CCNC4=O)CC3)cc2)cn1` ?
Completion: F

* * *

tested on: HOP-92 NSCLC; test: NCI tumour cell line growth inhibition, 48 h; in the data active = GI50 below about 0.43 µM; inactive = the rest
Could you please pick one outcome from this set? YES for active, NO for inactive

COMPOUND	ASSIGNED_LABEL
O=C(NO)c1ccc(CN(c2cnccn2)c2cnccn2)cc1	NO
CO/N=C(/C)c1cccc(Nc2cc(-c3ccccc3)nc3ccc(OC)cc23)c1	NO

Prompt: Any idea what this test logged for `NC(=S)N/N=C/c1cc(-c2cccc(N)c2)ccn1` ?
Completion: YES

Prompt: Per the assay record, what outcome was assigned to `CC[C@@]1(O)C(=O)OCc2c1cc1n(c2=O)Cc2c-1nc1cc(F)c(C)c3c1c2[C@@H](N)CC3` ?
Completion: YES

Prompt: Hey, what did the test say about `O=C1C(Cl)=C(Nc2ccccc2O)C(=O)N1Cc1ccccc1` ?
Completion: NO

Prompt: Test call, this compound: C[C@H]1CCC/C=C/[C@@H]2C[C@H](O)C[C@H]2[C@H](O)[C@@H](SCC(O)CO)CC(=O)O1 (stereo partly specified)
Completion: NO

Data credit: PubChem BioAssay (NCI)
